System: U-937
Assay: Inhibition of SAHA-induced alpha tubulin acetylation in human U937 cells at 100 uM after 4 hrs by Western blot analysis
Format: functional, cell-based
The source made the active and inactive calls. The calls are words filed in the database; no cut-off is given here.
Outcome field: choose from active, inactive

Returns: the outcome recorded for CCCCCCCCCCc1nc2ccccc2c(O)c1C(=O)O in this assay. active

Returns: the outcome recorded for Cc1nc2ccccc2c(O)c1C(=O)O in this assay. active

* * *

Target: Histone acetyltransferase KAT2A (Homo sapiens) (UniProt Q92830)
Sequence (Q92830 2-837 limits assumed): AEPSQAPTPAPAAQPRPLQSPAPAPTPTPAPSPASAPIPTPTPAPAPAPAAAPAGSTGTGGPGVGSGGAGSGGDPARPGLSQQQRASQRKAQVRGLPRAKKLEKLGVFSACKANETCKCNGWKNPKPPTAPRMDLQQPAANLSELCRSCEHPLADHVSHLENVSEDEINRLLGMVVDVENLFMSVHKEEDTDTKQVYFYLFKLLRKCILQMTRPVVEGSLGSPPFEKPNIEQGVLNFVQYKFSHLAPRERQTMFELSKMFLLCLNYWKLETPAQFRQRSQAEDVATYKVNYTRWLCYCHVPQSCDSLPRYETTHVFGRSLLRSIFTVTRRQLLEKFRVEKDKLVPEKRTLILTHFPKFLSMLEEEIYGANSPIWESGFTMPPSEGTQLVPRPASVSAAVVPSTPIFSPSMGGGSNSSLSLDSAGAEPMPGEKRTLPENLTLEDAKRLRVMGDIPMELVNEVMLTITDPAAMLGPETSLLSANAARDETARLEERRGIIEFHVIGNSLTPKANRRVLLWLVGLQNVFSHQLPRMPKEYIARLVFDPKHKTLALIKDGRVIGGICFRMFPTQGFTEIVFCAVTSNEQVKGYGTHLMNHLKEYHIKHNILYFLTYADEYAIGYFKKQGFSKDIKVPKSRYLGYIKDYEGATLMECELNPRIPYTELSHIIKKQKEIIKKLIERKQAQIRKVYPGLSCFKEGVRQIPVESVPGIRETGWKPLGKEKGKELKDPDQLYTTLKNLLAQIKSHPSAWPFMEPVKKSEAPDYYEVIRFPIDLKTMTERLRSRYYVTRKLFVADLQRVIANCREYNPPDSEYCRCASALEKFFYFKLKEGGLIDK
Experiment: Inhibition of human histone acetyltransferase GCN5 in U937 cell nuclear extracts assessed as remaining enzyme activity at 50 uM
Assay type: cell-free
Conditions: U-937
Readout Kind: Activity (%)
# number only, unit % dropped from output

Worked set:
Cc1nc2ccccc2c(O)c1C(=O)O    97.4
CCOC(=O)c1c(C)nc2ccccc2c1O    97.4
CCCCCc1nc2ccccc2c(O)c1C(=O)OCC    102
C=CC/C=C\C/C=C\CCCCCCCc1cccc(O)c1C(=O)O    113
CCCCCCCCCCCCCCCc1nc2ccccc2c(O)c1C(=O)O    103
CCCCCCCCCCc1nc2ccccc2c(O)c1C(=O)O    95.4

Which Activity reading was recorded for the molecule CCCCCCCCCCc1nc2ccccc2c(O)c1C(=O)OCC ? 93.4

* * *

Target: UniProtKB Q92830
Assay: Inhibition of human histone acetyltransferase GCN5 in U937 cell nuclear extracts assessed as remaining enzyme activity at 50 uM
Assay type: cell-free
Conditions: U-937
Reported Activity values for a set of compounds
# number only, unit % dropped from output

Worked set:
CCCCCCCCCCCCCCCc1nc2ccccc2c(O)c1C(=O)OCC    96.8
CCCCCc1nc2ccccc2c(O)c1C(=O)O    98

In the following, a different compound is considered.
Which Activity reading was recorded for the compound C=C1C(=O)O[C@H](CCC)[C@H]1C(=O)O ? 54.5

* * *

Molecular target: CREB-binding protein (Homo sapiens)
Experiment: Inhibition of human GST-fused histone acetyltransferase CBP in U937 cell nuclear extracts assessed as remaining enzyme activity at 50 uM
Type: cell-free
Settings: U-937
# class assignment by measured Activity: low range: < 20%; mid range: ≥ 20% and < 50%; high range: ≥ 50%

CCCCCCCCCCCCCCCc1nc2ccccc2c(O)c1C(=O)O    low range
CCCCCCCCCCCCCCCc1nc2ccccc2c(O)c1C(=O)OCC    high range
CCCCCCCCCCc1nc2ccccc2c(O)c1C(=O)O    low range
C=C1C(=O)O[C@H](CCC)[C@H]1C(=O)O    mid range

Now consider a different compound.
Kindly identify the class of CCCCCCCCCCc1nc2ccccc2c(O)c1C(=O)OCC . high range

* * *

Reported Activity values for a set of compounds
Molecular target: Histone acetyltransferase p300 (Homo sapiens)
Test: Inhibition of human immunoprecipitated histone acetyltransferase p300 in U937 cell nuclear extracts assessed as remaining enzyme activity at 50 uM
Format: cell-free
Conditions: U-937
Mention the unit after the number when you answer.

CCCCCCCCCCCCCCCc1nc2ccccc2c(O)c1C(=O)OCC    39.8%

Which Activity reading was recorded for the compound CCCCCCCCCCc1nc2ccccc2c(O)c1C(=O)O ? 53.9%

Which Activity reading was recorded for the compound CCCCCCCCCCc1nc2ccccc2c(O)c1C(=O)OCC ? 39.1%

* * *

System: U-937
Experiment: Inhibition of SAHA-induced alpha tubulin acetylation in human U937 cells at 100 uM after 4 hrs by Western blot analysis
Type: functional, cell-based
The source made the active and inactive calls. No cut-off for these calls is given here.
Readout Kind: Activity

Worked set:
CCCCCCCCCCCCCCCc1nc2ccccc2c(O)c1C(=O)O    Active
CCCCCCCCCCCCCCCc1nc2ccccc2c(O)c1C(=O)OCC    Active
CCOC(=O)c1c(C)nc2ccccc2c1O    inactive
CCCCCc1nc2ccccc2c(O)c1C(=O)O    Active

Request - read-out Activity | tested on U-937 | compound CCCCCc1nc2ccccc2c(O)c1C(=O)OCC Active

Request - read-out Activity | tested on U-937 | compound CCCCCCCCCCc1nc2ccccc2c(O)c1C(=O)OCC inactive

* * *

Target: CREB-binding protein (Homo sapiens) (UniProt Q92793)
Sequence (Q92793 2-2442 limits assumed): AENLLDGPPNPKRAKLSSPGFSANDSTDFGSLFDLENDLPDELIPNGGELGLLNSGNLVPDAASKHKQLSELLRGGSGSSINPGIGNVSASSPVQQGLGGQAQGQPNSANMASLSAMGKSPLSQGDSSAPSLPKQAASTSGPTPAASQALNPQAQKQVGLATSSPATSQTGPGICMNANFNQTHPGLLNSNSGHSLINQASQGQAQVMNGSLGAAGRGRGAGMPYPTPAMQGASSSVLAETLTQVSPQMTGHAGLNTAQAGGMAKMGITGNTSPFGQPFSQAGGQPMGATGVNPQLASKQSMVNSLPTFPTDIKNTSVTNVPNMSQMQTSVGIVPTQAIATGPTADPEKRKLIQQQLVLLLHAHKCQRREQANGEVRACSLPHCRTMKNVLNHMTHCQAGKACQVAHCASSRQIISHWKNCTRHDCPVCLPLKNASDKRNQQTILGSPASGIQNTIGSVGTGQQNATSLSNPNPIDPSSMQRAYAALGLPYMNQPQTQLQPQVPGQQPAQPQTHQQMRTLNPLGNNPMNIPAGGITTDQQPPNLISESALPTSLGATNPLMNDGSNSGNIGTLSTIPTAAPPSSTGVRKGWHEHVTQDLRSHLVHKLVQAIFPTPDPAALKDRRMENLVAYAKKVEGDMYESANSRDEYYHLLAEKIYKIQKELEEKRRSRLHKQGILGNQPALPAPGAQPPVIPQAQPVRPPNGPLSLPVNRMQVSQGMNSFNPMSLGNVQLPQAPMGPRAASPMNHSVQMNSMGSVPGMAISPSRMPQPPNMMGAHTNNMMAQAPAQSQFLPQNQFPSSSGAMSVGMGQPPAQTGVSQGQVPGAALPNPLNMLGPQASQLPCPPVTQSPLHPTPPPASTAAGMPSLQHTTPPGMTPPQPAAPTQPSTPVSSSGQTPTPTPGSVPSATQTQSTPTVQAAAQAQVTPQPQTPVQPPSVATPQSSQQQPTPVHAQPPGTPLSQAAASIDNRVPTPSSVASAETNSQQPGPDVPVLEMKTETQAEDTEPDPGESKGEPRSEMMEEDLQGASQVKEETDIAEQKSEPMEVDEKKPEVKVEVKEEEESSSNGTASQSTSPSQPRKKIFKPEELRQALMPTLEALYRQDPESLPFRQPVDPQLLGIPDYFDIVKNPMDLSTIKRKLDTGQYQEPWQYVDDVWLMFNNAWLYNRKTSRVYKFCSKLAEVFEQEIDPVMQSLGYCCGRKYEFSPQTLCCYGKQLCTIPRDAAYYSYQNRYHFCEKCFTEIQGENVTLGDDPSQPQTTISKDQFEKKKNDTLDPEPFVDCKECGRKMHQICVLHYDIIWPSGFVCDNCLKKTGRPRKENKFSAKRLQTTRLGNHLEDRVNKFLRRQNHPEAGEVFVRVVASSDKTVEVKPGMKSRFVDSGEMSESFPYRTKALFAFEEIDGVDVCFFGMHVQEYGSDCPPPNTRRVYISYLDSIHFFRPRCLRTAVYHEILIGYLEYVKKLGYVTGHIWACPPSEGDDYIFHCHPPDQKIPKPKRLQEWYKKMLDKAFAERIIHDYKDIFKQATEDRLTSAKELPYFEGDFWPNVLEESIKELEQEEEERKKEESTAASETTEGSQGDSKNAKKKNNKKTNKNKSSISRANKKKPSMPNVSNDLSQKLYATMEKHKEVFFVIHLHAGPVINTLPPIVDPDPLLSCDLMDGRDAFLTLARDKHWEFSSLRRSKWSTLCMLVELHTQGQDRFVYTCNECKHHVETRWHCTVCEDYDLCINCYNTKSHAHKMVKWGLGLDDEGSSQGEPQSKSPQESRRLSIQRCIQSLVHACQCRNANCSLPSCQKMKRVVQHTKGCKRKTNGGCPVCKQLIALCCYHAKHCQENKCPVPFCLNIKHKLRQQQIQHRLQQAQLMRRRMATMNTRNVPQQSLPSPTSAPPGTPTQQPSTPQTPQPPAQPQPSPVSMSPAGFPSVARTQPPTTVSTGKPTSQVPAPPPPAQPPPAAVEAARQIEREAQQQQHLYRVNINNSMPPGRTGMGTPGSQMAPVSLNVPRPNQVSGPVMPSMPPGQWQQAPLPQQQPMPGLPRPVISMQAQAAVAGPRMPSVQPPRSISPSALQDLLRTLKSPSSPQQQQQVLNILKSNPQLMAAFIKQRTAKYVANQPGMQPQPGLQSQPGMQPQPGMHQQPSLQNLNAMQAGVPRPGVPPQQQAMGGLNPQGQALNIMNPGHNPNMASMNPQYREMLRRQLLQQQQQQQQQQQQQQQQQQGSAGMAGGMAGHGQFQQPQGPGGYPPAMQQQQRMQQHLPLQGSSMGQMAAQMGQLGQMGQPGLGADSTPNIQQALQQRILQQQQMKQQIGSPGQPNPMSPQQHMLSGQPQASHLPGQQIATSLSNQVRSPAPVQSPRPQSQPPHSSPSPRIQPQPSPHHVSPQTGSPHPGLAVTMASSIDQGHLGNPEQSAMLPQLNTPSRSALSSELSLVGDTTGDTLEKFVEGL
Experiment: Inhibition of human GST-fused histone acetyltransferase CBP in U937 cell nuclear extracts assessed as remaining enzyme activity at 50 uM
Format: cell-free
Conditions: U-937
Readout Kind: Activity

Worked set:
Cc1nc2ccccc2c(O)c1C(=O)O    20.5%
CCCCCc1nc2ccccc2c(O)c1C(=O)O    19%

Request - read-out Activity | tested on CREB-binding protein (Homo sapiens) (UniProt Q92793) | compound CCOC(=O)c1c(C)nc2ccccc2c1O 13.4%

Request - read-out Activity | tested on CREB-binding protein (Homo sapiens) (UniProt Q92793) | compound CCCCCc1nc2ccccc2c(O)c1C(=O)OCC 91.2%

Request - read-out Activity | tested on CREB-binding protein (Homo sapiens) (UniProt Q92793) | compound C=CC/C=C\C/C=C\CCCCCCCc1cccc(O)c1C(=O)O 44%

Where do the numbers come from? From ChEMBL document CHEMBL1136851.
